B1: library; numbered along this chain (parent)
chain: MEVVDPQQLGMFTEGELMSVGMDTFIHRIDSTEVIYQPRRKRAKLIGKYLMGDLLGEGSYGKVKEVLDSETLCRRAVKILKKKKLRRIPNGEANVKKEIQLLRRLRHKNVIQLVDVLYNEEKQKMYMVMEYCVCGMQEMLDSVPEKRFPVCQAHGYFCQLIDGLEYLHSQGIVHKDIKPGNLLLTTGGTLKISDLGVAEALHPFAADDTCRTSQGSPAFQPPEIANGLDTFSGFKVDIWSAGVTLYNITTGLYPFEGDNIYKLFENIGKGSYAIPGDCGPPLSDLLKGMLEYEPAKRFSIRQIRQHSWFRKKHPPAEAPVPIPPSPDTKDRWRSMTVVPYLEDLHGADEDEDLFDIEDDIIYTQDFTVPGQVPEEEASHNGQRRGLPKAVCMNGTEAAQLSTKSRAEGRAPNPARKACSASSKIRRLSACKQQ

Variants of: B1
assayInfo: STK11 functional score (HeLa growth suppression), rescaled enrichment; synonymous median = 1, nonsense median = 0 (normalised score)
conditionDescription: with HeLa; variant type: missense
measure: STK11 functional score

> print(dat)
    variantannotation  reportedmeasurement
 1              C418R                 1.54
 2              P373N                 1.59
 3               E65F                 1.22
 4              P275E                 0.52
 5               R42T                0.779
 6              R147V                0.547
 7              P315H                 1.34
 8                V4E                 1.09
 9              G370I                  1.6
10               L45I                0.969
11               K84L                 1.64

Where do the numbers come from? From the supplement of paper PMC12338614.
